- system.tested: T1, rHuman ErbB2/Fc Chimera, CF (human, UniProt P04626 23-652)
- T1 construct: Bought from R&D Systems; also called human epidermal growth factor 2 receptor; not shown: Fc of the bought chimera
- protocol: ECL Multispot (MSD) assay; antigen spotted on plate, Fab in solution;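 also: fab bound 1 h at 20 °C, detected by TAG-labelled antibody electrochemiluminescence, signal relative to each well's blank, ratio of 4 or more marks a hit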
measure: ECL signal
Keep the answer to the number alone.

Quickly give me recorded ECL signal for Fab VH1-46_IGHD6-6*01_IGHJ1*01 S102A/S103P/S104F/H111F (APFF) & L6_IGKJ1*01 S28L (Fab, V domains shown, Fab made in E. coli; the variable domains were cloned into Plasmid A (CH1, His and Flag tags) and Plasmid C (kappa CL); also called APFF / S28L) VH: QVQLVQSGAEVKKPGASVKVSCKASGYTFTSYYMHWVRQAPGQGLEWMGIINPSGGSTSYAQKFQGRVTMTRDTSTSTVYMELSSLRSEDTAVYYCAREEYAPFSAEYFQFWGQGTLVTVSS VL: EIVLTQSPATLSLSPGERATLSCRASQLVSSYLAWYQQKPGQAPRLLIYDASNRATGIPARFSGSGSGTDFTLTISSLEPEDFAVYYCQQRSNWPPWTFGQGTKVEIKR
222
